// data source = PubChem BioAssay AID435030

Assay: reduced growth of AddAB-expressing E. coli cells – absorbance, AddAB inhibitor project, primary screen (AID 435030)
Settings: E. coli expressing H. pylori AddAB, at 11.9 µM
Screen size: about 330,000 compounds; about 940 (0.28%) were called active. Cut-off read from the data, not from the text of the source: active = inhibition above about 12%; inactive = the rest. This excerpt belongs to a sample that is enriched for actives.
Your reply should match one of these outcome classes. active, inactive

structureSmiles: C/C(=N/O)c1ccc2ccc3ccccc3c2c1
discreteLabel: inactive

structureSmiles: O=[N+]([O-])c1cnc2ccc3ccccc3c2c1
discreteLabel: active

structureSmiles: c1ccc2sc(N3CCNCC3)nc2c1
discreteLabel: inactive

Next up:
-- ask Assay outcome for COc1ccc(S(=O)(=O)NCc2ccc(C(=O)N3CCC4(CC3)OCCO4)cc2)cc1 : what was it?
-- reply inactive
